- MEASURED ON: T1, human 14-3-3σ with an N-terminal His6-tag (SEQ ID 28) (human)
- T1 chain: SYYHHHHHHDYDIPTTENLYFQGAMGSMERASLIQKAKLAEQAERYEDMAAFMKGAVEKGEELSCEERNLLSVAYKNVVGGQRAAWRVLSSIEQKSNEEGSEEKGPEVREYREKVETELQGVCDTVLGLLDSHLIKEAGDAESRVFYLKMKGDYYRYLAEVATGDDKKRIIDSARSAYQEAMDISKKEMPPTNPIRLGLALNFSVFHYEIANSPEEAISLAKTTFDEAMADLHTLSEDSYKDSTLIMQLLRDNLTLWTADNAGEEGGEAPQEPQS
- RUN DESCRIPTION: intact protein LC/MS; 200 µM peptide, 2 µM 14-3-3σ, 4° C. overnight
Non-standard residues stand in square brackets, D forms with d. methacrylate = methacrylate-modified cysteine (mC); mC = methacrylate-modified cysteine; pS = N[C@@H](COP(=O)(O)O)C(=O)O
Measured covalent labeling (%) accompanies every entry in the list below.
Express your answer in %, writing the number without its unit.

Example binders with recorded covalent labeling (%):
Ac-RSA[pS][mC]PSL-NH2 [Peptide SEQ ID 3, Ac-RSApSmCPSL-NH2]
51
Ac-RAH[pS]SPASC(methacrylate)Q-NH2 [Peptide SEQ ID 11, Ac-RAHpSSPASmCQ-NH2]
11

# input for lookup
Lab note: Ac-RAH[pS][mC]PASLQ-NH2 [Peptide SEQ ID 8, Ac-RAHpSmCPASLQ-NH2] gave covalent labeling (%) of 35
